- EXPERIMENT DESCRIPTION: small-molecule binders of probe aLefty1, primary screen, biochemical, small-molecule microarray, 635/667 nm fluorescence (AID 1153);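 further: score merges spot fluorescence with signal-to-noise ratio from the scanned slide images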
- APPLIED CONDITIONS: higher = more signal
READOUT TYPE: composite z-score
No unit in the answer, only the number.

For record "CCOC(=O)[C@H]1C/C=C/C[C@H](C(=O)OCC)C(=O)O[C@H]2[C@@H](OC)O[C@H](CO)[C@@H](OC(=O)c3c(OC)cccc3OC)[C@@H]2OC1=O" the listed composite z-score is 0.446

For record O=C1NC(=O)C2C1C=CC(C(O)c1cc(C(F)(F)F)cc(C(F)(F)F)c1)N2Nc1ccccn1 (centres undefined) the listed composite z-score is 0.127

For record CN1C=C(C(=O)OCCS(C)(=O)=O)C(C(=O)OCCS(C)(=O)=O)=CC(c2ccc(CO)cc2)=CC1C1CC1 (centres undefined) the listed composite z-score is -0.147

For record "C=C(COC)C(=O)CC[C@@H](OC(C)=O)c1ccc(CO)o1" the listed composite z-score is 0.0371

For record "COCCOC(=O)N1C(=O)[C@@]2(c3cc(C#CC4(O)CCCCCC4)ccc31)[C@H](c1ccccc1OCCO)N1[C@H](c3ccccc3)[C@H](c3ccccc3)OC(=O)[C@H]1[C@@H]2C(=O)N1CCN(c2ncccn2)CC1" the listed composite z-score is -0.0437

For record "CO[C@H]1O[C@H](CO)[C@@H](OC(=O)Nc2ccc(Oc3ccccc3)cc2)[C@H](OC(=O)Nc2ccc3c(c2)OCO3)[C@H]1OC(=O)Nc1ccc2c(c1)OCO2" the listed composite z-score is 0.523

For record "CCOC(=O)C[C@H]1[C@H](OC(=O)c2ccc(C(=O)c3ccccc3)cc2)[C@@H](NC(=O)c2ccc3ccccc3n2)c2cc(OCCCO)ccc2N1C(=O)c1ccccc1" the listed composite z-score is -0.0683

For record "COCCOC(=O)N1C(=O)[C@@]2(c3cc(C#CCC(C(=O)OC)C(=O)OC)ccc31)[C@H](C(=O)Nc1nc3ccccc3s1)[C@H]1C(=O)O[C@H](c3ccccc3)[C@H](c3ccccc3)N1[C@@H]2c1ccccc1OCCO" the listed composite z-score is 0.212

For record "CCC[C@@H]1C[C@@]1(CCC)[C@@H](NS(=O)(=O)c1cccc2cccnc12)c1ccc(Cl)cc1" the listed composite z-score is 0.617

For record "CCOC(=O)C[C@H]1[C@H](OC(=O)c2ccc(-c3ccccc3)cc2)[C@@H](NC(=O)Cc2ccc(OC)cc2)c2cc(OCCCO)ccc2N1C(=O)c1ccccc1" the listed composite z-score is 0.206

For record "C=CCOC(=O)[C@H]1[C@@H]2C(=O)O[C@@H](c3ccccc3)[C@@H](c3ccccc3)N2[C@@H](c2ccc(OCCOC(=O)[C@H]3C[C@H]4C(=O)N[C@@H](CCCCN(C)C)C(=O)N4[C@H]3c3ccc(O)cc3)cc2)[C@]12C(=O)Nc1ccc(I)cc12" the listed composite z-score is 0.461

For record "O=C1C[C@@](C(=O)NC2CC2)(c2ccc([N+](=O)[O-])cc2)[C@@H](c2ccc(CO)cc2I)N1C1CCCCC1" the listed composite z-score is -0.034

For record "C=C(CCCC)/C(=C/C[C@H](OC(=O)c1ccncc1)c1ccccc1OCCO)c1cnc2ccccc2c1" the listed composite z-score is 0.11

For record "COC(=O)[C@H](Cc1ccccc1)N[C@@H](/C=C/C1CC1)[C@H](O)Cc1ccccc1" the listed composite z-score is -0.239

For record O=C1NC(=O)C2C1C=CC(C(O)c1cccs1)N2Nc1ccc(Cl)cc1Cl (centres undefined) the listed composite z-score is -0.012

For record CC(C)=CCCC(C)=CC(O)C1C=CC2C(=O)N(C)C(=O)C2N1Nc1ccccc1 (centres undefined) the listed composite z-score is 0.525

For record CCC(CC)C(O)C1C=CC2C(=O)NC(=O)C2N1Nc1ccc(Cl)cc1Cl (centres undefined) the listed composite z-score is 0.348

For record "COC(=O)[C@@]1(Cc2ccc(OC)cc2)[C@H]2c3cc(C(=O)N4CCCC4)n(Cc4ccc(O)c(OC)c4)c3C[C@H]2CN1C(=O)c1ccccc1" the listed composite z-score is 0.622

For record "COc1cc2c(cc1OC)CN(C(=O)[C@H]1[C@@H]3C(=O)O[C@@H](c4ccccc4)[C@@H](c4ccccc4)N3[C@@H](c3ccc(O)cc3)[C@]13C(=O)Nc1ccccc13)CC2" the listed composite z-score is 0.0036
